pIC50: −log10 of the molar value.
Consider the following pIC50 data for Epidermal growth factor receptor (Homo sapiens, UniProt P00533), collected from several reports.
Lab note: anything with pIC50 at or over 8 counts as Met; the rest go in Not met.

MOLECULE | TARGET | CLASS
C=CC(=O)Nc1cc(Nc2nccc(-c3cn(C45CC(F)(C4)C5)c4ccccc34)n2)c(OC)cc1N(C)CCN(C)C | Epidermal growth factor receptor (Homo sapiens, UniProt P00533) | Met
CCOc1nn(CCO)c2c1/C=C/c1n[nH]c3cc(F)c(cc13)-c1cnn(C)c1O[C@@H](C)CN(C)C2 | Epidermal growth factor receptor (Homo sapiens, UniProt P00533) | Met
COc1cc(N(C)CCN(C)C)c(NC(C)=O)cc1Nc1nccc(-c2cn(Cc3cccc(O)c3C=O)c3ccccc23)n1 | Epidermal growth factor receptor (Homo sapiens, UniProt P00533) | Not met
Cc1nn(CCO)c2c1/C=C/c1n[nH]c3cc(Cl)c(cc13)-c1cnn(C)c1O[C@@H](C)CN(C)C2 | Epidermal growth factor receptor (Homo sapiens, UniProt P00533) | Not met
Cc1ccc(Oc2ccc(Nc3ncnc4sc5c(c34)CCN(C(=O)/C=C/CN3CC4C(CO)C4C3)C5)cc2C)cn1 (centres unmarked) | Epidermal growth factor receptor (Homo sapiens, UniProt P00533) | Not met
COc1cc(N2CCC(N3CCN(C)CC3)CC2)ccc1Nc1ncc(Cl)c(Nc2ccc(NCc3ccc(C=O)c(O)c3)cc2)n1 | Epidermal growth factor receptor (Homo sapiens, UniProt P00533) | Not met
COc1ccc(NC(=O)/C=C/CN(C)C)cc1Nc1ncc(Cl)c(Nc2cnc3ccccc3c2)n1 | Epidermal growth factor receptor (Homo sapiens, UniProt P00533) | Not met
CN(C)C/C=C/C(=O)N[C@H]1CC[C@H](n2nc(-c3ccc(Oc4ccccc4)cc3)c3c(N)ncnc32)CC1 | Epidermal growth factor receptor (Homo sapiens, UniProt P00533) | Not met
NS(=O)(=O)c1cccc2c1C(=O)c1cccc(O)c1C2=O | Epidermal growth factor receptor (Homo sapiens, UniProt P00533) | Not met
CCc1cc(Nc2ncc(Br)c(Nc3ccc(-c4nn(C)c5ncccc45)cc3P(C)(C)=O)n2)c(OC)cc1N1CCC(N(C)C)CC1 | Epidermal growth factor receptor (Homo sapiens, UniProt P00533) | Not met

----------
Please find below pIC50 measurements for Epidermal growth factor receptor (Homo sapiens), combined from several publications.
pIC50: −log10 of the molar value.

COMPOUND | pIC50
Cc1cc(Nc2ncnc3sc4c(c23)CN(C(=O)/C=C/CN(C)C)C4)ccc1Oc1ccn2ncnc2c1 | < 5.00
COc1cc(N2CCC(N3CCN(C)CC3)CC2)ccc1Nc1ncc(Br)c(Nc2cccc3c2N(S(C)(=O)=O)C2(CC2)C3)n1 | 8.85
CN1CCN(Cc2ccc3[nH]/c(=N\C(=O)c4ccnc(Oc5cccc(O)c5C=O)c4)n(CC(C)(C)O)c3c2)CC1 | 8.05
CC(=O)N1CCN(c2ccc(Nc3nccc(-c4sc(C(C)C)nc4-c4cccc(NS(=O)(=O)C5CCCCC5)c4)n3)cn2)CC1 | 6.00 to 7.00
CCNc1nc(-c2cccc(NS(=O)(=O)c3c(F)cccc3F)c2)c(-c2ccnc(Nc3ccc(N4CCOCC4)nc3)n2)s1 | 6.00 to 7.00
CC#CC(=O)N(C)[C@@H](C)c1nc(-c2ccc(C(=O)Nc3ccc(C)cn3)cc2)c2c(N)nccn12 | 6.45
CNC(=O)C(=O)N1CCC[C@@H](Nc2n[nH]c3nccc(Oc4ccc(C(=O)Nc5cc(C)ccn5)cc4)c23)C1 | 5.00 to 6.00
C=CC(=O)Nc1cc(Nc2ncc(Cl)c(Nc3ccc4ccccc4c3)n2)c(OC)cc1N1CCN(C(C)=O)CC1 | < 7.00
CCC(=O)N1CC[C@@H](Nc2n[nH]c3nccc(Nc4ccc(C(=O)Nc5cc(C(F)(F)F)ccn5)cc4)c23)C1 | 5.00 to 6.00
CCc1cc(Nc2ncc(Br)c(Nc3ccc(-c4cnn(CCN5CCOCC5)c4)cc3P(C)(C)=O)n2)c(OC)cc1N1CCC(N2CCN(C)CC2)CC1 | 7.81
CCc1cc(Nc2ncc(Br)c(Nc3ccc(-c4ccc(C)nc4)cc3P(C)(C)=O)n2)c(OC)cc1N1CCC(N2CCN(C)CC2)CC1 | 7.54
Cc1ccnc(NC(=O)c2ccc(Oc3ccnc4[nH]nc(N[C@@H]5CCCN(C(=O)[C@@H]6CCOC6)C5)c34)cc2)c1 | < 5.00
COc1cc(N2CCN(C3CC3)CC2)c(C)cc1Nc1ncc(Br)c(Nc2ccc3nc(C4CC4)ccc3c2P(C)(C)=O)n1 | 6.77
COc1ccccc1C(=O)NCc1ccc(-c2nn(C3CCCC(O)C3)c3ncnc(N)c23)cc1 (stereo not shown) | 6.00 to 7.00
CC#CC(=O)N(C)[C@@H](C)c1nc(-c2ccc(C(=O)Nc3ccccn3)cc2)c2c(N)nccn12 | 6.91
CCN1CCC(Oc2ccc3c(c2)/C(=C(\c2cccc(Cl)c2)c2ncc[nH]2)C(=O)N3)CC1 | 5.30 to 6.30
C=CC(=O)Nc1cc(-c2c(-c3ccc(N4CCN(C(C)C)CC4)cc3)[nH]c3ncc(C(=O)OC(C)C)cc23)ccc1C | ≥ 7.00
Cc1ccc(Oc2ccc(Nc3ncnc4sc5c(c34)CCN(C(=O)/C=C/CN3CC[C@H](F)C3)C5)cc2C)cn1 | < 5.00
C=CC(=O)N1CCOc2c1ccc1ncnc(Oc3ccc(OCc4cccc(F)c4)cc3)c21 | ≥ 7.30
COCCOc1cc2c(Nc3ccc(F)c(Cl)c3)ncnc2cc1OCCCCCCC(=O)NO | > 7.00
CN1CCN(C2CCN(c3ccc(Nc4nc(O[C@H]5CCN(C)C5)c(-c5ccccc5)nc4C(N)=O)cc3)CC2)CC1 | < 7.00
C=CC(=O)Nc1cccc(Nc2cc(Oc3ccc4c(c3)OCCO4)ncn2)n1 | ≥ 8.00
Cc1ccc(Oc2ccc(Nc3ncnc4sc5c(c34)CN(C(=O)C=CCN(C)C)C5C)cc2C)cn1 (single isomer, unassigned) | < 5.00
CN(C(=O)/C=C/CN(C)[C@H]1CCOC1)c1cccc(-n2c(=O)n(-c3ccc(Oc4ccccc4)cc3)c3c(N)ncnc32)c1 | 5.00 to 6.00
C=C1c2c(-c3cnc4ccccc4c3)c3c(N)ncnc3n2C[C@H]1NC(=O)/C=C/CN(CC)CC | 7.66
Cc1ccc(Oc2ccc(Nc3ncnc4sc5c(c34)CCN(C(=O)/C=C/CN3CCC[C@H](CO)C3)C5)cc2C)cn1 | < 5.00
CCc1nn(C)c2c1/C=C/c1n[nH]c3ccc(cc13)-c1cnn(C)c1OCC[C@H](C)O2 | 6.47
Cc1ccc(Oc2ccc(Nc3ncnc4sc5c(c34)CCN(C(=O)/C=C/CN3CC[C@@H](CO)C3)C5)cc2C)cn1 | 5.00 to 6.00
